Reported Emax values for the following compounds.
System Under Test: PKR(wt) (Homo sapiens)
Sequence (P30613 whole entry): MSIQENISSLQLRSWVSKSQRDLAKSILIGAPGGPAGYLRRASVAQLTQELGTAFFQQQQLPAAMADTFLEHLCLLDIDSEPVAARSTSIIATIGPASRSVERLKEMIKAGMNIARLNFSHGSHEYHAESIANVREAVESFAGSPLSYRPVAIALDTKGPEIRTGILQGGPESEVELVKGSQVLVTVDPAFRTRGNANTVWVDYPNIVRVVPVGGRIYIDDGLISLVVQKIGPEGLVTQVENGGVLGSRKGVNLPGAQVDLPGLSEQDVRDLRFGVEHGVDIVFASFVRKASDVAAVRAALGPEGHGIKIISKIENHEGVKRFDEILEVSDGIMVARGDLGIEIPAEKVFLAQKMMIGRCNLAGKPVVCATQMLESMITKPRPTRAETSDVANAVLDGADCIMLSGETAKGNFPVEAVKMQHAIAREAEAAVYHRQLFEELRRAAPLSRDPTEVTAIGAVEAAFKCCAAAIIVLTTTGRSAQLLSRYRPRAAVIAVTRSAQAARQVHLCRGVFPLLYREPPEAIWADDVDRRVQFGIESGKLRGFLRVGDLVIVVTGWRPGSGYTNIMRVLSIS
Protocol Notes: Luminescence Biochemical Assay (Kinase Glo Plus), wild type PKR
Stated Conditions: without FBP, read-out: AC50 LUM KGP woFBP MAX % FOLD mean

Here's what some known entries look like.
Compound: O=C([C@H](O)c1ccccc1)N1CC2=C(C1)CN(S(=O)(=O)c1ccc(C(F)(F)F)cc1)C2 [Example 18-11]
Emax: 75 to 250%
//
Compound: Cc1cc(COC(=O)N2CC3=C(C2)CN(S(=O)(=O)c2ccc(OC(F)F)cc2)C3)nn1C [Example 22-4]
Emax: 250 to 500%
//
Compound: O=C(C(F)c1ccccc1)N1CC2=C(C1)CN(S(=O)(=O)c1ccc(OC(F)F)cc1)C2 (stereo not drawn) [Example 18-24]
Emax: 250 to 500%

Prompt: Return value of Emax for input O=C([C@H](O)c1ccccc1)N1CC2=C(C1)CN(S(=O)(=O)c1ccc(C(F)(F)F)nc1)C2 [Example 18-14] , no commentary.
Completion: 75 to 250%

Prompt: Return value of Emax for input O=C([C@@H](O)c1ccc2c(c1)NCCO2)N1CC2=C(C1)CN(S(=O)(=O)c1ccc(OC(F)F)cc1)C2 (single isomer, unassigned) [Example 9-5] , no commentary.
Completion: 250 to 500%

Prompt: Return value of Emax for input Cc1ccc(C(C)NC(=O)N2CC3=C(C2)CN(S(=O)(=O)c2ccc(OC(F)F)cc2)C3)o1 (stereo not drawn) [Example 21-3] , no commentary.
Completion: 250 to 500%

Prompt: Return value of Emax for input O=C([C@H](O)c1ccccc1)N1CC2=C(C1)CN(S(=O)(=O)c1ccc(OC(F)F)cc1)C2 [Example 18-13] , no commentary.
Completion: 250 to 500%

---

Reported AC50 values for the following molecules.
System Under Test: PKR(R510Q) (Homo sapiens, UniProt P30613, R510Q)
Sequence (P30613 whole entry R510Q): as the sequence (P30613 whole entry) above, with R510Q counted along it
Protocol Notes: Luminescence Biochemical Assay (Kinase Glo Plus), PKR R510Q mutant
Stated Conditions: without FBP, read-out: AC50 LUM KGP woFBP AC50 μM gmean

Here's what some known entries look like.
Molecule: CC[C@@H](O)C(=O)N1CC2=C(C1)CN(S(=O)(=O)c1ccc3c(c1)N(C)CCO3)C2
AC50: 1 to 40 µM
//
Molecule: O=C(NCc1ccno1)N1CC2=C(C1)CN(S(=O)(=O)c1ccc3ncsc3c1)C2
AC50: 1 to 40 µM
//
Molecule: O=C(Cn1cccn1)N1CC2=C(C1)CN(S(=O)(=O)c1ccc(OC(F)F)cc1)C2
AC50: 1 to 40 µM

Prompt: Return value of AC50 for input Cc1cccc(CNC(=O)N2CC3=C(C2)CN(S(=O)(=O)c2ccc4ncsc4c2)C3)n1 , no commentary.
Completion: 0.1 to 1 µM

Prompt: Return value of AC50 for input N#Cc1ccc(S(=O)(=O)N2CC3=C(CN(C(=O)[C@H](O)c4ccccc4)C3)C2)cc1 , no commentary.
Completion: 0.1 to 1 µM

Prompt: Return value of AC50 for input O=C(NCc1cnccn1)N1CC2=C(C1)CN(S(=O)(=O)c1ccc3ncsc3c1)C2 , no commentary.
Completion: 1 to 40 µM

Prompt: Return value of AC50 for input O=C([C@H](O)c1ccccc1)N1CC2=C(C1)CN(S(=O)(=O)c1ccc(F)cc1F)C2 , no commentary.
Completion: 0.1 to 1 µM

Prompt: Return value of AC50 for input COc1ccccc1CNC(=O)N1CC2=C(C1)CN(S(=O)(=O)c1ccc(OC(F)F)cc1)C2 , no commentary.
Completion: 0.1 to 1 µM

Prompt: Return value of AC50 for input Cc1cc(COC(=O)N2CC3=C(C2)CN(S(=O)(=O)c2ccc(OC(F)F)cc2)C3)no1 , no commentary.
Completion: 0.1 to 1 µM

Prompt: Return value of AC50 for input O=C([C@@H](O)c1ccc2c(c1)CNCC2)N1CC2=C(C1)CN(S(=O)(=O)c1ccc(OC(F)F)cc1)C2 (single isomer, unassigned) , no commentary.
Completion: 0.1 to 1 µM

Prompt: Return value of AC50 for input O=C(NCc1ccc(F)cc1)N1CC2=C(C1)CN(S(=O)(=O)c1ccc3ncsc3c1)C2 , no commentary.
Completion: 0.1 to 1 µM

Prompt: Return value of AC50 for input Cc1nn(C)c(Cl)c1S(=O)(=O)N1CC2=C(CN(C(=O)[C@H](O)c3ccccc3)C2)C1 , no commentary.
Completion: 1 to 40 µM

Prompt: Return value of AC50 for input NS(=O)(=O)c1cccc(S(=O)(=O)N2CC3=C(CN(C(=O)[C@H](O)c4ccccc4)C3)C2)c1 , no commentary.
Completion: 1 to 40 µM

Prompt: Return value of AC50 for input O=C(NCc1ncco1)N1CC2=C(C1)CN(S(=O)(=O)c1ccc3ncsc3c1)C2 , no commentary.
Completion: 0.1 to 1 µM

Prompt: Return value of AC50 for input Cc1nc(S(=O)(=O)N2CC3=C(CN(C(=O)C(C)n4cnc5ccccc54)C3)C2)cn1C (stereo not drawn) , no commentary.
Completion: 1 to 40 µM
